Please provide measured inhibition for the entries that follow.
experiment: inhibitors of TNFa-induced NFkB p65 translocation, primary screen, imaging, HUVEC, MLSMR starter and 10KST1 sets (AID 438); conditions: HUVEC TNFa-induced p65 nuclear translocation; at 2 µM, active compounds read high, 0% TNFa-plus-vehicle, 100% no-TNFa wells;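 also: compound added about 3h40 before a 20 min TNFalpha stimulation; signal is the nuclear over cytoplasmic p65 intensity ratio per well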
Numbers only, in %.

{"columns": ["MOLECULE", "UNIT_INFO", "inhibition"],
 "data": [
  ["COc1ccccc1C1/C(=C(/O)c2cnn(-c3ccccc3)c2C)C(=O)C(=O)N1CCN(C)C (stereo unspecified)", "%", -0.5],
  ["CCOC(=O)CSc1nc(C)c(C(C)=O)cc1C#N", "%", -18.6],
  ["CCCOc1cc(CN2CCCCC2)cc(C(C)=O)c1", "%", -7.2],
  ["CCOc1ccc(C2/C(=C(/O)c3ccc(F)cc3)C(=O)C(=O)N2CCCN(C)C)cc1 (stereo unspecified)", "%", -4.5],
  ["Cc1c(N2C(=O)SC(CC(=O)O)C2=O)c(=O)n(-c2ccccc2)n1C (stereo unspecified)", "%", 1.9],
  ["CCCCC1C(=O)N(c2ccccc2)N(c2ccccc2)C1=O", "%", 4.6],
  ["N#Cc1nc(-c2cccs2)oc1NCCN1CCOCC1", "%", 6.6],
  ["CCOC(=O)c1cc2cc(OC)ccc2[nH]1", "%", -5.3],
  ["N/C(=N\\c1nc2ccccc2o1)NC(=O)c1ccccc1NC(=O)c1ccccc1", "%", 5.2],
  ["COC(=O)CSC1=C(C#N)C(=O)NC2(CCCCC2)S1", "%", -10.7]
]}

# next molecule below
What measured inhibition goes with O=C(Cc1cscn1)c1ccc(O)cc1O ?
-6

###

assay: inhibitors of E-selectin induction by TNFa, primary screen, imaging, HUVEC, immunofluorescence, MLSMR starter and 10KST1 sets (AID 487); conditions: HUVEC TNFalpha-induced E-selectin immunofluorescence imaging, at 2 µM; active compounds read high;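 also: signal is fraction of cell area covered by stained E-selectin grains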
RECORDED_ENDPOINT: inhibition (%)
Answers are plain numbers, in %.

{"columns": ["COMPOUND", "inhibition, %"],
 "data": [
  ["Cc1c(C)c2cc(Cl)c(O)c(CN3CCCCC3)c2oc1=O", -14.6],
  ["CCc1nnc(NC(=O)CSc2nc(C)c3c(c2C#N)CCCC3)s1", -129],
  ["Clc1ccccc1-c1nn2c(-c3ccccn3)nnc2s1", -82.4],
  ["Cc1nn2c(-c3ccc(Cl)cc3)nnc2s1", -65.8],
  ["CCOC(=O)CSc1nc2sc3c(c2c(=O)[nH]1)CC(C)(C)OC3", 18.3],
  ["Cc1cc(C)n(CC(=O)n2c3c(c4ccccc42)CCCC3)n1", -92.5]
]}

Provide reported inhibition for each item, in the same order as listed.
1. Cn1c([N+](=O)[O-])cnc1COC(N)=O
2. C=CCSc1nnc2n(CCc3ccccc3)c(=O)c3c4c(sc3n12)COC(C)(C)C4
3. Cc1ccc(-c2ccccc2NC(=O)C2C3C=CC(C3)C2C(=O)O)o1 (stereo unspecified)
4. COc1cc(-c2nn3c(C4CCCCC4)nnc3s2)cc(OC)c1OC
5. Cc1[nH]nc2cn[nH]c12
6. COc1ccc(/C(O)=C2/C(=O)C(=O)N(CCN3CCOCC3)C2c2ccccn2)cc1 (stereo unspecified)
7. Cc1cc(C)n(C(=O)CNC(=O)C2COc3ccccc3O2)n1 (stereo unspecified)
8. CCOC(=O)Cc1nnc(Nc2cccc(O)c2)c2ccccc12

1. -73.8
2. -100
3. -4.5
4. -115
5. -92.8
6. 25.6
7. -92.7
8. -46.3

Provide reported inhibition for each item, in the same order as listed.
1. C=CCOc1nc2c(c(=O)n(C)c(=O)n2C)n1Cc1ccccc1Cl
2. COC(=O)c1ccc(CSc2ncnc3c2sc2nc(N4CCOCC4)c4c(c23)CCCC4)o1
3. O=C(O)CCCC(=O)Nc1ccn(-c2ccccc2)n1
4. CN(C)c1nc(OCCOC(=O)Nc2ccc(Cl)cc2Cl)nc(N(C)C)n1
5. c1ccc(CN2CCN(c3nc(-c4ccccn4)nc4ccccc34)CC2)cc1
6. CCc1[nH]nc2c1C(c1ccc(Br)s1)C(C#N)=C(N)O2 (stereo unspecified)
7. Cc1cc2c(c(=O)n1CC1CCCO1)C(c1ccc3c(c1)OCO3)C(C#N)=C(N)O2 (stereo unspecified)
8. Cc1ccc2[nH]c3c(N4CCN(Cc5ccc6c(c5)OCO6)CC4)ncnc3c2c1

1. 39.7
2. 7.4
3. -63.9
4. -100
5. -134
6. -85.9
7. -118
8. -47.6

Provide reported inhibition for each item, in the same order as listed.
1. COc1ccc(CCNc2nc3c(c(=O)n(C)c(=O)n3C)n2C)cc1OC
2. COc1ccc(C2=Nn3c(nnc3-c3ccccn3)SC2)cc1OC
3. N#C/C(C(=O)NCc1ccccc1)=C1\SC(CCO)C(=O)N1c1ccccc1 (stereo unspecified)
4. Cc1cc(=O)oc2c(CN3CCN(C)CC3)c(O)c(Cl)cc12
5. CC1CCc2cc(F)cc3c(O)c(C(=O)NCc4ccco4)c(=O)n1c23 (stereo unspecified)
6. CCCCCC(=O)N1CC2(CC)CN(C(=O)CCCCC)CC(CC)(C1)C2=O
7. COC(=O)c1ccccc1N1C(=O)[C@@H]2C(c3ccc(Br)cc3)=NO[C@@H]2C1=O
8. Cc1ccc(-c2nnc(OCCN3CCOCC3)c3ccccc23)cc1

1: -63.1; 2: 60; 3: -97.3; 4: -17.2; 5: -39.2; 6: -77.8; 7: 0.3; 8: -85.1

Provide reported inhibition for each item, in the same order as listed.
1. O=C(O)Cc1ccc(-c2ccccc2)cc1
2. CCOC(=O)c1ccc(N2CC(O)=C(c3nc4ccccc4c(=O)[nH]3)C2=N)cc1
3. C=C(C)C1Cc2c(C)nn(-c3nc(C)cc(C)n3)c2C1 (stereo unspecified)
4. c1ccc(-c2nnc3sc(Cc4cccs4)nn23)cc1
5. Cc1nn(-c2ccccc2)c2c1C(=O)NC(=O)C(C)(C)C2

1: -30.6; 2: 45.3; 3: -50.5; 4: -149; 5: -24.8

Provide reported inhibition for each item, in the same order as listed.
1. CN=C1c2c(-c3ccccc3)c3cc(OC)ccc3n2CCN1C
2. Nc1ccc(S(=O)(=O)Nc2ccccn2)cc1
3. COC(=O)c1cc(Br)c(=O)n(Cc2ccc3c(c2)OCO3)c1

1: -137; 2: -123; 3: -141

Provide reported inhibition for each item, in the same order as listed.
1. N#CC1=C(N)N2C(=C(C#N)C1c1ccccc1)Sc1ccccc12 (stereo unspecified)
2. CC(C)c1cc(NCCCN2CCOCC2)n2c(nc3ccccc32)c1C#N
3. CC(=O)c1cc2c(=O)c3ccccc3oc2nc1C

1: 9.7; 2: -6.2; 3: 19.7

Provide reported inhibition for each item, in the same order as listed.
1. OCCCc1nc2ccccc2n1CCc1ccccc1
2. Cc1c(CCC#N)c(N2CCCCC2)n2c(nc3ccccc32)c1C#N
3. C=CCc1cccc(/C=N/c2ncn[nH]2)c1O
4. Cn1c(N2CCOCC2)nc2c1c(=O)n(Cc1ccc(Cl)cc1)c(=O)n2C
5. CCC(=O)OC1=C2C(=Nc3c(c(=O)n(C)c(=O)n3C)C2c2ccccc2)c2ccccc21 (stereo unspecified)

1. -395
2. -116
3. -90.5
4. -31.1
5. -57.1
